System: Candida albicans
Assay: Antifungal activity against Candida albicans by broth dilution method
Assay type: functional
observable: MIC

Use these answered entries as a reference point.
Cc1coc2cc3oc(C(=O)Nc4ccccc4)c(C)c3cc12: 600 µg/mL
Cc1ccc(NC(=O)c2oc3cc4occ(C)c4cc3c2C)cc1: ≥ 600 µg/mL
Cc1coc2cc3oc(C(=O)N4CCOCC4)c(C)c3cc12: ≥ 600 µg/mL
Cc1coc2cc3oc(C(=O)N4CCCC4)c(C)c3cc12: 600 µg/mL
COc1ccc(NC(=O)c2oc3cc4occ(C)c4cc3c2C)cc1: ≥ 600 µg/mL
Cc1coc2cc3oc(C(=O)Nc4ccc(Cl)cc4)c(C)c3cc12: ≥ 600 µg/mL
Cc1coc2cc3oc(C(=O)N4CCc5ccccc5C4)c(C)c3cc12: 600 µg/mL
Cc1coc2cc3oc(C(=O)Nc4ccc(O)cc4)c(C)c3cc12: ≥ 600 µg/mL

From here, focus on the item given below.
Q: Provide only the value of recorded MIC for Cc1coc2cc3oc(C(=O)Nc4ccc(C(=O)O)cc4)c(C)c3cc12
A: 600 µg/mL

###

Tested on: Candida albicans
Assay: Antifungal activity against Candida albicans by broth dilution method
Assay type: functional
Listing of recorded MIC by entry.

Sample answers from the record:
CCN(CC)C(=O)c1oc2cc3occ(C)c3cc2c1C: 600 µg/mL
Cc1coc2cc3oc(C(=O)N4CCCCC4)c(C)c3cc12: ≥ 600 µg/mL

Moving on to the next compound.
Q: Using known records, supply MIC for OC(Cn1cncn1)(Cn1cncn1)c1ccc(F)cc1F
A: 5 µg/mL

All values here come from ChEMBL document CHEMBL3124818.
